Measured % Inhibition, listed per entry for reference.
- System: Plasmodium falciparum
- test name: Primary screen in NF54 nanoGlo assay, in single point, at 2uM, 72h
- Assay type: functional, Erythrocyte
- condition description: timepoint 72 hour
In all, about 150,000 compounds went through this assay and about 540 (0.36%) showed an effect of 50% or more. This is one part of a sample in which strong results are shown more often than they occur.
Kindly provide the numeric value in % only, without the unit symbol.

Lab note: Cc1ccc2c(c1)C(=O)N1CCCC1C(=O)N2CC(=O)NCC1CCCO1 (configuration not stated) gave % Inhibition of -1

Short answer for `O=C(Nc1cccnc1O)c1nc(C2CC2)n(-c2ccccc2)n1` : % Inhibition was 33

Reported % Inhibition for `Cc1nn2c(-c3ccc(-c4ccccc4)cc3)ccnc2c1Cl` was -12

# compound `CCc1cc(N2CCCO2)nc(-c2ccncc2)n1` ; its % Inhibition = 1

For this compound ( COc1cccc(-c2nc(C)c(C(=O)NC[C@@H]3CCCN4CCCCC34)s2)c1 (some centres not stated) ), measured % Inhibition is -1

---

- Test system: Plasmodium falciparum
- test name: Primary screen in NF54 nanoGlo assay, in single point, at 2uM, 72h
- Type: functional, Erythrocyte
- condition description: timepoint 72 hour
The whole screen tested about 150,000 compounds, of which about 540 (0.36%) showed an effect of 50% or more. The entries come from a sample that favours strong results as a whole.
# Lookup of reported Z score keyed by entry
// keep it numeric: no unit symbol after the value

Some compounds with known Z score results, for comparison:
# smiles structure, Z score
rows = [
    ("Cc1cccc(NC(=O)[C@H]2CCN(c3cn[nH]c(=O)c3)C2)c1", -0.4),
    ("COc1cccc(N2C(=O)C[C@]3(CC3(c3ccccc3)c3ccccc3)C2=O)c1", -0.08),
    ("COc1ccc(-n2nc(C(=O)N3CCN(C)CC3)c(=O)n(Cc3cccc(C(F)(F)F)c3)c2=O)cc1OC", 0.34),
    ("CC(=O)Nc1ccc(S(=O)(=O)NC2(c3nc(C)no3)CCCCC2)cc1", 0.55),
    ("NC(=O)[C@@H]1CCCN1S(=O)(=O)c1ccc2c(c1)CCC(=O)N2", 1.82),
    ("CC(=O)N[C@H]1CCN(S(=O)(=O)c2sccc2Cl)C1", -0.08),
    ("O=C(Nc1ccc(N2CCOCC2)cc1)[C@H]1CCN(c2cn[nH]c(=O)c2)C1", 1.91),
    ("CCCCN(CC)CCNC(=O)C1CCN(C2=NS(=O)(=O)C(c3ccc(OC)cc3)=C2C)CC1", -3.61),
]

Recorded Z score (compound `Cc1ccc(CN2CCN(CC(=O)Nc3cc(C)on3)C(=O)C2=O)cc1` ): -0.03

// Z score lookup, compound = `Fc1ccccc1N1CCN(C2CCN(Cc3c[nH]c4ccccc34)CC2)CC1` , result: -0.71

Measured Z score, `c1ccc(C(c2ccccc2)N2CCN(c3nn4cnnc4c4ccccc34)CC2)cc1` : -11.8

The compound identified as `Cc1ccc(N2C(=O)C[C@]3(CC3(c3ccccc3)c3ccccc3)C2=O)cc1` registered its Z score at -0.64

Noted for `O=C(NCc1ccco1)Nc1nccs1` : its Z score reads -0.2

GET /value?item= `O=C1C[C@]2(CC2(c2ccccc2)c2ccccc2)C(=O)N1c1cccc(Br)c1` &field=Z score returns -3.6

Form field Z score, entry `CCC1=C(c2ccc(C)cc2)S(=O)(=O)N=C1N1CCC(C(=O)NCCCc2ccccc2)CC1` : 1.6

Sure, the documented Z score for `Cn1nc2c(c1C(=O)NCc1csc(N)n1)CCCC2` is -0.77

Lab book: Z score of `O=C(Cn1cc(F)ccc1=O)N1CCc2ccccc21` noted as 1.07

Kindly note the recorded Z score for `Cn1nnc(C(=O)N2CCC(c3ccccc3)(N3CCCC3)CC2)n1` , which is -1.29

The recorded Z score for entry `COc1cc(-c2cc(-c3cccnc3)c3c(ccc4ccccc43)n2)cc(Cl)c1O` equals -2.48

Z score reported for this compound `CCCN1CCCC[C@H]1C(=O)NCCCn1ccnc1` : 1.01

Entry under test: `Oc1ccccc1-c1cc(-c2ccccc2)c2c(ccc3ccccc32)n1` . Its Z score was 0.64

The compound identified as `CC1(C)CCCN1S(=O)(=O)c1onc(C2CC2)c1Cl` registered its Z score at 0.41

---

- System: Plasmodium falciparum
- test name: Primary screen in NF54 nanoGlo assay, in single point, at 2uM, 72h
- Type: functional, Erythrocyte
- condition description: timepoint 72 hour
About 540 (0.36%) of roughly 150,000 compounds showed an effect of 50% or more. The list comes from a sample in which strong results are over-represented; it also holds close analogues and randomly drawn compounds.
Label label 1 when Z score is at or above 0.6; anything below gets label 0.

Illustrative cases are given below, each with its answer.
# smiles structure, group label
records = [
    ("COc1cc(CNCCN2CCOCC2)ccc1OCc1cccc(C)c1", "label 0"),
    ("O=C(Nc1cccc2c1CCCC2)c1cccc(S(=O)(=O)N2CCCCC2)c1", "label 1"),
    ("COc1cc(CNCCCN2CCOCC2)ccc1OCc1ccc(Cl)cc1", "label 0"),
    ("C#CCNC(=O)c1ccc(N[C@@H](C)COC)nc1", "label 1"),
    ("CCCCN(C(=O)Nc1nc2ccccc2s1)C1CC1", "label 1"),
]

Next, consider the following compound.
I'd appreciate it if you could say whether `CN(C(=O)OC(C)(C)C)[C@H]1CCCN(C(=O)c2ccn(C)c(=O)c2)C1` has Z score at least equal to 0.6.
label 0

---

% Inhibition values, listed per item
- Tested on: Plasmodium falciparum
- test name: Primary screen in NF54 nanoGlo assay, in single point, at 2uM, 72h
- Assay type: functional, Erythrocyte
- condition description: timepoint 72 hour
Hit rate of the full screen: of about 150,000 compounds, about 540 (0.36%) showed an effect of 50% or more. The entries come from a sample that favours strong results as a whole.
Give your result in % as a bare value.

# smiles structure, % Inhibition (%)
data = [
    ("Cc1ccsc1CN(Cc1cccnc1)CC(C)C", -9),
    ("CCNC(=O)N[C@H]1CCN(C2CCCCCC2)C1", 1),
    ("CCc1cccc(NC(=O)Cn2ccc3ccc(-c4nnc(C)o4)cc32)c1", 78),
    ("CC1=NO[C@H](C(=O)NCC2(Cn3ccnc3C)CC2)C1", -4),
]

Pending compound:
Sure, the documented % Inhibition for `COc1ccc(Cl)cc1C(=O)Nc1ccnn1C[C@H]1CCOC1` is 3

---

- System: Plasmodium falciparum
- test name: Primary screen in NF54 nanoGlo assay, in single point, at 2uM, 72h; a lower Z score goes with more inhibition
- Format: functional, Erythrocyte
- condition description: timepoint 72 hour
The campaign covered roughly 150,000 compounds. About 540 (0.36%) showed an effect of 50% or more. Shown is part of a subset that was picked to be rich in strong results.
Kind request: treat 0.7 as inclusive, so Z score at 0.7 or higher is class 1, anything lower is class 0.

# smiles structure, tgt, group label
measured = [
    ("O=C(NC[C@H]1CCCN1c1ccccc1)c1ccccc1Br", "Plasmodium falciparum", "class 1"),
    ("Cc1nccc(-c2cc(O)cc(CC[C@H]3CCCCN3)c2)n1", "Plasmodium falciparum", "class 1"),
]

Exam item: decide whether the reported Z score for `CC(=O)c1cc(-c2cc(O)cc(CC[C@H]3CCCCN3)c2)ccc1O` is at least 0.7.
class 0

Kindly determine if Z score recorded for `O=C(NCCn1ccnc1)c1[nH]nc(C2CC2)c1Cl` is above or exactly 0.7.
class 1

Decide: is the reported value of Z score for `CCOc1cccc(C(=O)N[C@H]2CCN(Cc3ccccn3)C[C@@H]2O)c1` equal to or greater than 0.7?
class 0

Can `CN(Cc1ncc(-c2ccccc2)o1)c1ccccc1` be said to have Z score at or above 0.7?
class 0

Evaluate `Cc1cccc(CN2CCC[C@H](C(=O)c3ccc4c5c(cccc35)CC4)C2)n1` : Z score at minimum 0.7?
class 0

Is the recorded value of Z score equal to or greater than 0.7 for this molecule? `Cc1cc(-c2cc(O)cc(CC[C@H]3CCCCN3)c2)ccn1`
class 0

Form field: Z score at least 0.7? Entry: `OCc1ccnc(-c2cc(O)cc(CC[C@H]3CCCCN3)c2)c1`
class 0

Identify whether the reported Z score of the following molecule is 0.7 or greater: `Cc1cccc(-c2noc(N3CCOCC3)c2CN(C(=O)CC(C)C)C2CC2)c1`
class 1

Does the reported Z score for `CC(C)N(C)C(=O)C1CCN(C(=O)[C@@H](N)C(C)(C)C)CC1` fall at or above the 0.7 mark?
class 0

Answer whether Z score of `Cc1cc(C(=O)N2CCC[C@H](C(=O)c3ccc4c5c(cccc35)CC4)C2)nc(N)n1` is greater than or equal to 0.7.
class 0

# check: Z score of `COc1ccc([C@@H](CC(=O)N2CCCC2)c2cn(Cc3ccccc3)c3ccccc23)cc1` is greater than or equal to 0.7
class 1

Does `COc1cccc(CCn2ccnc2C(C)C)c1` have a reported Z score of at least 0.7?
class 1

Determine whether measured Z score meets or exceeds 0.7 for `CN(Cc1cccnc1)C(=O)c1csc(NC(=O)c2ccc(Cl)cc2Cl)n1`
class 1
